Target: UniProt P20309
Sequence (P20309 whole entry): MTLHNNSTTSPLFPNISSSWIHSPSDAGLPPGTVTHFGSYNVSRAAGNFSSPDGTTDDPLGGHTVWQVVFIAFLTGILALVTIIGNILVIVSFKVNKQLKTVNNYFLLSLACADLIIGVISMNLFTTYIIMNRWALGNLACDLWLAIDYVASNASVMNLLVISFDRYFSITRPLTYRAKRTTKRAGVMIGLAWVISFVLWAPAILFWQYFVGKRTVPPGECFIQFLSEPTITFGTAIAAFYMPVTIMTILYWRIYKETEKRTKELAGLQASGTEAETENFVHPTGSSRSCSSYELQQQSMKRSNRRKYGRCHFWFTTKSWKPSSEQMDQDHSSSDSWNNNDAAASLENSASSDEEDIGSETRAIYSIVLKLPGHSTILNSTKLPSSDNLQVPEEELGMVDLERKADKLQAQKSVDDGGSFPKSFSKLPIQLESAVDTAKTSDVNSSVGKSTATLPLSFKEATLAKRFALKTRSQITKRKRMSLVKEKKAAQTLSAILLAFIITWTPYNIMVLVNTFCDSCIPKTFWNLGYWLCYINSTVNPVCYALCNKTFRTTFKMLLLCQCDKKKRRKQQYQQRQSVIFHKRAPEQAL
VALUE KIND: Ki (nM)
Numbers only; they are read as nM.

Known value: UniProt P20309 Ki of the molecule COc1ccc([C@H](Cc2c(Cl)c[n+]([O-])cc2Cl)OC(=O)c2ccc(CNC(C(=O)OC[C@H]3CCN(C)C3)c3ccccc3)s2)cc1OC (stereo partly specified) equals 0.59
